TEST: AUC in Sprague-Dawley rat at 30 mg/kg, po
Type: ADME, organism-based
Set-up: dose 30 mg/kg, route oral
CONDITION_DETAILS: plasma
EXPERIMENTAL_ENDPOINT: AUC (ng·h/mL)

* COc1nc(C2=NN(c3ccc(C#N)c(C)c3)[C@@H](C3CCCC3)C2)ccc1C(=O)O | 33600

====

Quick list: logD per entry.
TEST: Lipophilicity, log D of the compound by octanol/buffer shake flask method
Type: physicochemical
EXPERIMENTAL_ENDPOINT: logD

- COc1nc(C2=NN(c3ccc(C#N)c(C)n3)[C@@H](C3CCCC3)C2)ccc1C(=O)N(C)C: 4.1
- COc1nc(C2=NN(c3ccc(C#N)c(Cl)c3)[C@@H](C3CCCC3)C2)ccc1C(=O)O: 2.3
- Cc1nc(N2N=C(c3ccc(C(=O)O)cc3)C[C@@H]2C2CCCC2)ccc1C#N: 2.6
- COc1cc(C2=NN(c3ccc(C#N)c(Cl)c3)[C@@H](C3CCCC3)C2)ccc1C(=O)O: 2.1
- COc1nc(C2=NN(c3ccc(C#N)c(C)c3)[C@@H](C3CCCC3)C2)ccc1C(=O)NS(C)(=O)=O: 2.3
- COc1nc(C2=NN(c3ccc(C#N)c(C)c3)[C@H](C3CCCC3)C2)ccc1C(=O)O: 2.2
- COc1nc(C2=NN(c3ccc(C#N)c(C)n3)[C@@H](C3CCCC3)C2)ccc1C(N)=O: 3.4
- COc1nc(C2=NN(c3ccc(C#N)c(C)c3)[C@@H](C3CCCC3)C2)ccc1C(N)=O: 3.8
- CCOc1nc(C2=NN(c3ccc(C#N)c(C)c3)[C@@H](C3CCCC3)C2)ccc1C(=O)O: 3

Source of measurements: ChEMBL document CHEMBL3259597
